Hi there, I'd appreciate the recorded mass density for every entry that follows.
conditions: 393.15 K; 15000 kPa; Liquid; Vibrating tube method
Numbers only, in kg/m3.

Consider the reported mass density for these compounds:
Reported mass density for CCn1cc[n+](C)c1.O=S(=O)([O-])C(F)(F)F [1-ethyl-3-methylimidazolium trifluoromethanesulfonate] : what is it?
1302

What do you get for CCC[N+]1(C)CCCCC1.O=S(=O)([N-]S(=O)(=O)C(F)(F)F)C(F)(F)F ?
1336.3

What do you get for CCCC[N+]1(C)CCCC1.O=S(=O)([N-]S(=O)(=O)C(F)(F)F)C(F)(F)F ?
1329.5

Continuing:
Reported mass density for CCC[n+]1cccc(C)c1.O=S(=O)([N-]S(=O)(=O)C(F)(F)F)C(F)(F)F : what is it?
1369.7

---

details: 333.15 K; 20000 kPa; Liquid; Vibrating tube method
property label: mass density (kg/m3)
One number for each entry, in kg/m3.

Consider the reported mass density for these compounds:
Reported mass density for CCCC[N+]1(C)CCCC1.O=S(=O)([N-]S(=O)(=O)C(F)(F)F)C(F)(F)F : what is it?
1385.8

What do you get for CCC[N+]1(C)CCCCC1.O=S(=O)([N-]S(=O)(=O)C(F)(F)F)C(F)(F)F ?
1392.3

What do you get for CCC[n+]1cccc(C)c1.O=S(=O)([N-]S(=O)(=O)C(F)(F)F)C(F)(F)F ?
1429.9

Continuing:
Reported mass density for CCn1cc[n+](C)c1.O=S(=O)([O-])C(F)(F)F [1-ethyl-3-methylimidazolium trifluoromethanesulfonate] : what is it?
1355.4

---

Hi there, I'd appreciate the recorded mass density for every entry that follows.
details: 353.15 K; 1000 kPa; Liquid; Vibrating tube method
Numbers after ± are expanded uncertainties.
# do not omit the unit; it follows the number

Consider the reported mass density for these compounds:
Reported mass density for CCC[n+]1cccc(C)c1.O=S(=O)([N-]S(=O)(=O)C(F)(F)F)C(F)(F)F : what is it?
1394.6 ± 12 kg/m3

What do you get for CCC[N+]1(C)CCCCC1.O=S(=O)([N-]S(=O)(=O)C(F)(F)F)C(F)(F)F ?
1359.3 ± 12 kg/m3

What do you get for CCCC[N+]1(C)CCCC1.O=S(=O)([N-]S(=O)(=O)C(F)(F)F)C(F)(F)F ?
1352.3 ± 12 kg/m3

Kindly consider the entry below.
Reported mass density for CCC[N+]1(C)CCCC1.O=S(=O)([N-]S(=O)(=O)C(F)(F)F)C(F)(F)F : what is it?
1380.8 ± 12 kg/m3
